These data points were gathered from paper PMC3064895.

- protocol-notes: Plasma pharmacokinetics at steady state of sorafenib
- Format: in vivo, patients with advanced cancer
- experimental-parameters: plasma; Day 1 of cycle 2; sorafenib 400 mg bid
Listing of recorded AUCnorm, geometric mean (% CV) by entry.

{"input-smiles": "NC(=O)c1cc(Oc2ccc(NC(=O)Nc3ccc(Cl)c(C(F)(F)F)c3)cc2)ccn1", "AUCnorm, geometric mean (% CV)": "0.4 (62.8) kg h/L"}
{"input-smiles": "NC(=O)c1cc(Oc2ccc(NC(=O)Nc3ccc(Cl)c(C(F)(F)F)c3)cc2)cc[n+]1[O-]", "AUCnorm, geometric mean (% CV)": "0.5 (91.4) kg h/L"}
{"input-smiles": "CNC(=O)c1cc(Oc2ccc(NC(=O)Nc3ccc(Cl)c(C(F)(F)F)c3)cc2)cc[n+]1[O-]", "AUCnorm, geometric mean (% CV)": "1.4 (59.6) kg h/L"}
{"input-smiles": "CNC(=O)c1cc(Oc2ccc(NC(=O)Nc3ccc(Cl)c(C(F)(F)F)c3)cc2)ccn1", "AUCnorm, geometric mean (% CV)": "7.5 (48.4) kg h/L"}
